- TARGET_UNDER_TEST: ACAT in J774 cells (Mus musculus, UniProt Q61263)
- Construct: J774 cells or HepG2 cells were inoculated on a 24-well plate; endogenous in cells; host or cells: J774 cells
- MEASUREMENT_PROTOCOL: ACAT inhibitory action (anti-foaming action) in J774 cells, cholesterol ester formation
- Assay type: cell-based
- EXPERIMENTAL_CONDITIONS: J774 cells, 10 μg/ml 25-OH cholesterol, 18-hr culturing, cholesterol ester per protein; read-out: IC50 (μM) of J774-derived enzyme
RECORDED_METRIC: IC50

• COC(=O)c1ccc2oc(SCCCCCC(=O)Nc3c(C(C)C)cccc3C(C)C)nc2c1 [Example 34] = 0.6 µM
• COC(=O)c1cccc2nc(SCCCCCC(=O)Nc3c(C(C)C)cccc3C(C)C)oc12 [Example 46] = 0.098 µM

Request: Return IC50 for the following compound: CC(C)c1cccc(C(C)C)c1NC(=O)CCCCCSc1nc2c(N(C)C)cccc2o1 [Example 28]
Result: 0.47 µM

Request: Return IC50 for the following compound: CC(C)c1cccc(C(C)C)c1NC(=O)CCCCCSc1nc2ncccc2o1 [Example 1]
Result: 1.3 µM

---

- TARGET_UNDER_TEST: ACAT, small intestine-derived enzyme (Oryctolagus cuniculus, UniProt G1SFD9)
- Sequence (G1SFD9 1-524): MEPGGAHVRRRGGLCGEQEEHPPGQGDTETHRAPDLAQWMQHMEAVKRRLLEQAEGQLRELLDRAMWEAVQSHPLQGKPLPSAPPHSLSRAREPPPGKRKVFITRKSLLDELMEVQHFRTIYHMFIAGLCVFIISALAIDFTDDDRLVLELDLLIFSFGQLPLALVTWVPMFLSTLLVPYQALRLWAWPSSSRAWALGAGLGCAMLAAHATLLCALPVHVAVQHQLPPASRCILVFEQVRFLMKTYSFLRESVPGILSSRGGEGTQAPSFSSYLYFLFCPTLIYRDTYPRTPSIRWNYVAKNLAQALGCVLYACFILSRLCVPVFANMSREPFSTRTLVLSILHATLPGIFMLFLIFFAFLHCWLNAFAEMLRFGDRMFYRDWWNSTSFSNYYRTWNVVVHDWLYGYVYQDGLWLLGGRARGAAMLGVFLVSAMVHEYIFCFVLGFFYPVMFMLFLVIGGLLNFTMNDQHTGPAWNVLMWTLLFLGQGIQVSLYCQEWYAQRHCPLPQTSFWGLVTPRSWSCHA
- MEASUREMENT_PROTOCOL: ACAT inhibitory action, small intestine-derived enzyme
- Type: biochemical
- EXPERIMENTAL_CONDITIONS: rabbit small intestine enzyme solution, 14C-Oleoyl-CoA, 37° C., 3 minutes
RECORDED_METRIC: IC50 (µM)
Field format: number, assumed µM, no unit text.

• CCCCCCCCCN(CC(C)(C)C)C(=O)N[C@H]1CCCC[C@@H]1OC(=O)CCNC(=O)C1OC(C)(C)OCC1(C)C (some centres unmarked) [Control 3, reference compound] = 0.056

Request: Enter recorded IC50 with ACAT, small intestine-derived enzyme (Oryctolagus cuniculus, UniProt G1SFD9) for CCCCCCCN(CCCCCSc1nc(-c2ccccc2)c(-c2ccccc2)[nH]1)c1nc2ccccc2o1 [Control 4, reference compound] here.
Result: 0.037

---

Some compounds, each annotated with its measured melting point.

Request: Return melting point for the following compound: "CC(C)c1cccc(C(C)C)c1NC(=O)CCCCCSc1nc2cccc(C(F)(F)F)c2o1"
Result: 130 °C

Request: Return melting point for the following compound: "CC(C)c1cccc(C(C)C)c1NC(=O)CCCCCNc1nc2cccnc2o1"
Result: 177 to 178 °C

Request: Return melting point for the following compound: "CC(C)c1cccc(C(C)C)c1NC(=O)CCCCCSc1ncc[nH]1"
Result: 190 to 191 °C

Request: Return melting point for the following compound: "CC(C)c1cccc(C(C)C)c1NC(=O)CCCCCSc1nc2cccc(-c3nnn[nH]3)c2o1"
Result: 218 to 220 °C

Request: Return melting point for the following compound: "CC(C)c1cccc(C(C)C)c1NC(=O)CCCCCSc1nc2cccc(CN(C)C)c2o1"
Result: 102 to 104 °C

---

- System: ACAT in HepG2 cells
- MEASUREMENT_PROTOCOL: ACAT inhibitory action in HepG2 cells, cholesterol ester formation
- Assay type: cell-based
- EXPERIMENTAL_CONDITIONS: 10 μg/ml 25-OH cholesterol, 18-hr culturing, cholesterol ester per protein, read-out: IC50 (μM) of HepG2-derived enzyme
RECORDED_METRIC: IC50 (µM)
Field format: number, assumed µM, no unit text.

Known results for compounds:
- COC(=O)c1cccc2nc(SCCCCCC(=O)Nc3c(C(C)C)cccc3C(C)C)oc12: 29.8
- COC(=O)c1ccc2oc(SCCCCCC(=O)Nc3c(C(C)C)cccc3C(C)C)nc2c1: 8.15
- CC(C)c1cccc(C(C)C)c1NC(=O)CCCCCSc1nc2cc(OCc3ccccc3)ccc2o1: 1.9
- CC(C)c1cccc(C(C)C)c1NC(=O)CCCCCSc1nc2ncccc2o1: 4.1
- CC(C)c1cccc(C(C)C)c1NC(=O)CCCCCSc1nc2cnccc2[nH]1: 10

Request: Return IC50 for the following compound: "CC(C)c1cccc(C(C)C)c1NC(=O)CCCCCSc1nc2c(N(C)C)cccc2o1"
Result: 0.42

Request: Return IC50 for the following compound: CCCCCCCN(CCCCCSc1nc(-c2ccccc2)c(-c2ccccc2)[nH]1)c1nc2ccccc2o1 [Control 4, reference compound]
Result: 0.75

Request: Return IC50 for the following compound: "CC(C)c1cccc(C(C)C)c1NC(=O)CCCCCCCCSc1nc2cccc(C(F)(F)F)c2o1"
Result: 0.089

Request: Return IC50 for the following compound: "CC(C)c1cccc(C(C)C)c1NC(=O)CCCCCSc1nc2cccc(-c3cc[nH]n3)c2o1"
Result: 10

---

- TARGET_UNDER_TEST: ACAT in J774 cells (Mus musculus, UniProt Q61263)
- Construct: J774 cells or HepG2 cells were inoculated on a 24-well plate; endogenous in cells; host or cells: J774 cells
- MEASUREMENT_PROTOCOL: ACAT inhibitory action (anti-foaming action) in J774 cells, cholesterol ester formation
- Type: cell-based
- EXPERIMENTAL_CONDITIONS: J774 cells, 10 μg/ml 25-OH cholesterol, 18-hr culturing, cholesterol ester per protein; read-out: IC50 (μM) of J774-derived enzyme
Some compounds, each annotated with its measured log10 of IC50.
In our notation, the value equals log10 of IC50 in µM.

• CC(C)c1cccc(C(C)C)c1NC(=O)CCCCCSc1nc2cccc(-c3cc[nH]n3)c2o1 = 0.21
• CCCCCCCN(CCCCCSc1nc(-c2ccccc2)c(-c2ccccc2)[nH]1)c1nc2ccccc2o1 [Control 4, reference compound] = -0.92
• CC(C)c1cccc(C(C)C)c1NC(=O)CCCCCSc1nc2cnccc2[nH]1 = 1.00
• CC(C)c1cccc(C(C)C)c1NC(=O)CCCCCSc1nc2c(CN(C)C)cccc2o1 = 0.12
• CC(C)c1cccc(C(C)C)c1NC(=O)C(C)(C)CCCOc1ccc2c(c1)C=C(c1nccn1C)C(CCc1ccc(F)cc1)O2 (stereo not drawn) [Control 1, reference compound] = -0.25
• CC(C)c1cccc(C(C)C)c1NC(=O)CCCCCCCCSc1nc2cccc(C(F)(F)F)c2o1 = -1.92
• CC(C)c1cccc(C(C)C)c1NC(=O)CCCCCSc1nc2cc(N(C)C)ccc2o1 = 0.26
• CCCCCCCCCN(CC(C)(C)C)C(=O)N[C@H]1CCCC[C@@H]1OC(=O)CCNC(=O)C1OC(C)(C)OCC1(C)C (stereo partly drawn) [Control 3, reference compound] = -0.49

Kindly consider the entry below.
Request: Return log10 of IC50 for the following compound: "CC(C)c1cccc(C(C)C)c1NC(=O)CCCCCSc1nc2cc(OCc3ccccc3)ccc2o1"
Result: -0.59

---

- TARGET_UNDER_TEST: ACAT in J774 cells (Mus musculus)
- Construct: J774 cells or HepG2 cells were inoculated on a 24-well plate; endogenous in cells; host or cells: J774 cells
- Sequence (Q61263 1-540): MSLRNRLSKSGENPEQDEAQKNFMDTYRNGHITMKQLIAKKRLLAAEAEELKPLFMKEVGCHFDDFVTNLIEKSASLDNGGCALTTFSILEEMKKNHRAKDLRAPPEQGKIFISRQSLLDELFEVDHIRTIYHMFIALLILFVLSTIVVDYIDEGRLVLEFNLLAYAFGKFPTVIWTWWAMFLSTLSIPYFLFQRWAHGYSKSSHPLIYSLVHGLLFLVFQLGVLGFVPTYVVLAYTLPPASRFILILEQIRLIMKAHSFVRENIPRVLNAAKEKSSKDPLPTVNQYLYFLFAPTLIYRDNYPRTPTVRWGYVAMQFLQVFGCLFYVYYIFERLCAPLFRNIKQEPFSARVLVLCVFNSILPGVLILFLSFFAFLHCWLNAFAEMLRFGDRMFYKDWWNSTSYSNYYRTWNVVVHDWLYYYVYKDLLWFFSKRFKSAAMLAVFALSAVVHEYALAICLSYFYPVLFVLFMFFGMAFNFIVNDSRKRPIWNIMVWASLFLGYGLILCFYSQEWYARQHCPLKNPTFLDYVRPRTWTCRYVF
- MEASUREMENT_PROTOCOL: ACAT inhibitory action (anti-foaming action) in J774 cells, cholesterol ester formation
- Format: cell-based
- EXPERIMENTAL_CONDITIONS: ratio HepG2 / J774
Some molecules, each annotated with its measured IC50 (HepG2)/IC50 (J774).
Lab note: jot the number down without any unit.

Request: Return IC50 (HepG2)/IC50 (J774) for the following molecule: CCCCCCCCCN(CC(C)(C)C)C(=O)N[C@H]1CCCC[C@@H]1OC(=O)CCNC(=O)C1OC(C)(C)OCC1(C)C (stereo partly drawn) [Control 3, reference compound]
Result: 4.3

Request: Return IC50 (HepG2)/IC50 (J774) for the following molecule: "COC(=O)c1ccc2oc(SCCCCCC(=O)Nc3c(C(C)C)cccc3C(C)C)nc2c1"
Result: 13.5

Request: Return IC50 (HepG2)/IC50 (J774) for the following molecule: CCCCCCCN(CCCCCSc1nc(-c2ccccc2)c(-c2ccccc2)[nH]1)c1nc2ccccc2o1 [Control 4, reference compound]
Result: 6.3
